Collected IC50 values appear next to each entry.
# Test system: KRAS-mutant PDC tumor spheroid with HUVEC/MSC, viability
# assay: Anticancer human tumor 327498-153-R-J2-PDC patient-derived uterine carcinosarcoma cell line growth inhibition [KRAS2]
# cond: curve of first compound; second compound 3.16 µM

State its IC50 for this molecule: CC(C)n1nc(-c2ccc3oc(N)nc3c2)c2c(N)ncnc21 + CNCc1ccccc1-c1csc(C(C)Nc2nc(C)nc3cc(OC)c(OC)cc23)c1
< 0.316 nM

For the molecule CC1COCCN1c1cc(-c2ccnn2C)c2ccnc(-c3ccn[nH]3)c2n1 (stereo not drawn) + C=CC(=O)N1CCN(c2nc(=O)n(-c3c(C)ccnc3C(C)C)c3nc(-c4c(O)cccc4F)c(F)cc23)C(C)C1 , give its measured IC50 value.
< 10 nM

Supply measured IC50 of CC1COCCN1c1cc(-c2ccnn2C)c2ccnc(-c3ccn[nH]3)c2n1 (stereo not drawn) + CNCc1ccccc1-c1csc(C(C)Nc2nc(C)nc3cc(OC)c(OC)cc23)c1 in your reply.
< 10 nM

---

viability, T/C for assorted compounds
# Tested on: KRAS-mutant PDC tumor spheroid with HUVEC/MSC, viability
# assay: Anticancer human tumor 327498-153-R-J2-PDC cell line growth inhibition [KRAS2];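 note: spheroids exposed to agents for seven days before reading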;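 for viability, T/C: 100% = DMSO vehicle wells so lower means fewer viable cells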
# cond: second compound 0.1 µM; first compound 0.316 µM; stronger effect = lower value
Give your result in % as a bare value.

>>> number("CCN1CCN(Cc2ccc(Nc3ncc(F)c(-c4cc(F)c5nc(C)n(C(C)C)c5c4)n3)nc2)CC1 + C=CC(=O)N1CCN(c2nc(=O)n(-c3c(C)ccnc3C(C)C)c3nc(-c4c(O)cccc4F)c(F)cc23)C(C)C1")
30.7
>>> number("CCNC(=O)CC1N=C(c2ccc(Cl)cc2)c2cc(OC)ccc2-n2c(C)nnc21 (centres undefined) + C=CC(=O)N1CCN(c2nc(=O)n(-c3c(C)ccnc3C(C)C)c3nc(-c4c(O)cccc4F)c(F)cc23)C(C)C1")
45.8

Look up and state reported viability, T/C for CC1(C)CCC(CN2CCN(c3ccc(C(=O)NS(=O)(=O)c4ccc(NCC5CCOCC5)c([N+](=O)[O-])c4)c(Oc4cnc5[nH]ccc5c4)c3)CC2)=C(c2ccc(Cl)cc2)C1 + COc1cc2nc(C)nc(NC(C)c3cc(N)cc(C(F)(F)F)c3)c2cc1OC1CCOC1
76.9

Assign viability, T/C to the following record: CC1COCCN1c1cc(-c2ccnn2C)c2ccnc(-c3ccn[nH]3)c2n1 (centres undefined) + CNCc1ccccc1-c1csc(C(C)Nc2nc(C)nc3cc(OC)c(OC)cc23)c1
5.57

Please report viability, T/C for the following compound: COC(=O)c1ccc2c(C(=Nc3ccc(N(C)C(=O)CN4CCN(C)CC4)cc3)c3ccccc3)c(O)[nH]c2c1 + CNCc1ccccc1-c1csc(C(C)Nc2nc(C)nc3cc(OC)c(OC)cc23)c1
58.6

// Input: COc1cc(Nc2ncc3c(n2)-c2ccc(Cl)cc2C(c2c(F)cccc2OC)=NC3)ccc1C(=O)O + COc1cc2nc(C)nc(NC(C)c3cc(N)cc(C(F)(F)F)c3)c2cc1OC1CCOC1 . Output its viability, T/C only.
9.32

---

# Tested on: KRAS-mutant PDC tumor spheroid with HUVEC/MSC, viability
# assay: Anticancer human tumor 327498-153-R-J2-PDC cell line growth inhibition [KRAS2]; active = viability on the fitted dose curve at most 10% of control; inactive = the rest;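 note: spheroids exposed to agents for seven days before reading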
# cond: second compound 0.1 µM; first compound 0.316 µM
Reply using exactly one outcome from y for active, n for inactive

Each compound tested received a call. Report the one for COc1cc2nccc(Oc3ccc(NC(=O)C4(C(=O)Nc5ccc(F)cc5)CC4)cc3)c2cc1OC + CC1OCC2(CCN(c3cnc(Sc4ccnc(N)c4Cl)c(N)n3)CC2)C1N .
n

Write down the call the test reported for this compound. Item: COc1cc(Nc2ncc3c(n2)-c2ccc(Cl)cc2C(c2c(F)cccc2OC)=NC3)ccc1C(=O)O + CNCc1ccccc1-c1csc(C(C)Nc2nc(C)nc3cc(OC)c(OC)cc23)c1
n
